target: Nuclear respiratory factor 1 (Homo sapiens) (UniProt Q16656); test: ATG_NRF1_CIS: Attagene CIS-FACTORIAL HepG2 Assay for human Nuclear Respiratory Factor 1 (NRF1) Orphan Gene (AID 2282987); conditions: HepG2 NRF1 cis-element reporter, Attagene multiplex; actives raise or lower the signal
Sequence (Q16656 whole entry, looked up): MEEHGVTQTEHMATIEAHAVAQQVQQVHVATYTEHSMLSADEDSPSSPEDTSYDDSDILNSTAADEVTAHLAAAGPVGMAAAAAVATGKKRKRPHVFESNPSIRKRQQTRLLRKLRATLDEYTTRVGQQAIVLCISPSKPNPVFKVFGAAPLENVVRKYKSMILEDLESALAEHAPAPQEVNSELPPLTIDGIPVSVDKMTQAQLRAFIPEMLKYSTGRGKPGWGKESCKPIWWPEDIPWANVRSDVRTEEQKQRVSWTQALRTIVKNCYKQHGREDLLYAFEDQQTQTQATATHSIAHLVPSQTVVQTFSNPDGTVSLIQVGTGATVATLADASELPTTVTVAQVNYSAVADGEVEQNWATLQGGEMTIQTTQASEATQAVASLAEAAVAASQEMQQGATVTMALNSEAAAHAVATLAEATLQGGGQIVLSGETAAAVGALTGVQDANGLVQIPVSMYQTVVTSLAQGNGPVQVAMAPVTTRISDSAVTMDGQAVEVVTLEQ
Active and inactive are the calls of the source. Rule for the calls: active = hit-call score of the fitted dose curve at least 0.9, where 1 is the maximum; inactive = score below 0.9.
Form entry, call: pick from Y (active), N (inactive)

Check out these entries, answers already filled in.
| MOLECULE | LABEL VALUE |
| --- | --- |
| COC(=O)c1ccc(C)cc1C1=NC(C)(C(C)C)C(=O)N1 (configuration not stated) (tested in a mixture with another compound) | N |
| C=C(C)C(=O)OCCOCCOCCOC(=O)C(=C)C | N |
| CCCCCCCCN1CCCC1=O | N |
| CC(C)(N=C=O)c1cccc(C(C)(C)N=C=O)c1 | N |
| Cc1ccc(OC(=O)c2ccccc2O)cc1 | N |
| CC(C)(C)C1=CC(=O)C(C(C)(C)C)=CC1=O | N |

Lab log entry: Cc1c(OCC(F)(F)F)ccnc1CS(=O)c1nc2ccccc2[nH]1 (configuration not stated) — outcome as called in the assay? Y
